System: CD69 in human whole blood
PROCEDURE_SUMMARY: Induction of CD69 in human whole blood (hWB)
Assay type: cell-based
ASSAY_CONDITIONS: heparinized human whole blood, 17 h, CD69 surface staining; 100% set to 1 uM resiquimod; average where assay repeated
Under this convention, Y denotes EC50 strictly below 20 nM and N denotes EC50 at or above 20 nM.

Previously resolved entries follow.
1. CCCCNc1nc(N)nc2cnn(Cc3ccc(CN4CC5(C4)CN(C(=O)C4(C)CC4)C5)cc3OC)c12 = N
2. CCC[C@@H](CCO)Nc1nc(N)nc2cnn(Cc3ccc(C(=O)N4CC5(C4)CN(C(C)C)C5)cc3OC)c12 = N
3. CCCCNc1nc(N)nc2cnn(Cc3ccc(CN4CC5(CCNC5)C4)cc3OC)c12 = Y
4. COc1cc(C(=O)N2C[C@H]3CN(C)C[C@H]3C2)ccc1Cn1ncc2nc(N)nc(NCC3CC4(C3)CC4(F)F)c21 (stereo partly shown) = Y
5. COc1cc(C(=O)N[C@H]2C[C@H](O)C2)ccc1Cn1ncc2nc(N)nc(NCC3CC4(CC4)C3)c21 = N

I wonder whether COc1cc(CN2CC3(C2)CS(=O)(=O)C3)ccc1Cn1ncc2nc(N)nc(NCC3CC4(C3)CC4(F)F)c21 (stereo not shown) has EC50 below 20 nM. Can you tell?
N

Take the compound COc1cc(CN2CC3(C2)CN(C(C)=O)C3)ccc1Cn1ncc2nc(N)nc(NCC3CC4(C3)CC4F)c21 (stereo not shown) and say whether its EC50 is less than 20 nM.
N
